Reference source: patent US20170058314A1

- System: stationary phase B. burgdorferi persisters (strain B31)
- test.method.notes: SYBR Green I/PI viability assay (plate reader), FDA-approved drug library screen
- condition: 50 μM, 7 days, stationary phase
value.kind: Ratio of Green/Red fluorescence, Rescreening (second column)

{"columns": ["structure.smiles.string", "endpoint.result"],
 "data": [
  ["Nc1nc(/C(=C/CC(=O)O)C(=O)N[C@@H]2C(=O)N3C(C(=O)O)=CCS[C@H]23)cs1", 7.27],
  ["CO/N=C(\\C(=O)N[C@@H]1C(=O)N2C(C(=O)O)=C(CSc3nc(=O)c(=O)[nH]n3C)CS[C@H]12)c1csc(N)n1", 6.78],
  ["CO/N=C(\\C(=O)N[C@@H]1C(=O)N2C(C(=O)O)=CCS[C@H]12)c1csc(N)n1", 7.03],
  ["CC1(C)S[C@@H]2[C@H](NC(=O)[C@H](C(=O)O)c3ccsc3)C(=O)N2[C@H]1C(=O)O", 6.93]
]}
